Give diameter of the inhibition zone (DIZ) for every item shown.
test system: Streptococcus pneumoniae; assay: Antibacterial activity against Streptococcus pneumoniae R6 Tr1 harboring parC Ser79Tyr mutant gene by agar disk diffusion method; assay type: functional
Could you give me the number in mm? Just the number is fine.

Memo: C[C@H]1COc2c(N3CCN(C)CC3)c(F)cc3c(=O)c(C(=O)O)cn1c23.C[C@H]1COc2c(N3CCN(C)CC3)c(F)cc3c(=O)c(C(=O)O)cn1c23.O , reported diameter of the inhibition zone (DIZ): 21

// diameter of the inhibition zone (DIZ) value for CCn1cc(C(=O)O)c(=O)c2cc(F)c(N3CCNCC3)cc21 : 6

Input CCn1cc(C(=O)O)c(=O)c2ccc(C)nc21 . Output diameter of the inhibition zone (DIZ): 6

For this compound ( COc1c(N2C[C@@H]3CCCN[C@@H]3C2)c(F)cc2c(=O)c(C(=O)O)cn(C3CC3)c12 ), measured diameter of the inhibition zone (DIZ) is 28

Sure, the documented diameter of the inhibition zone (DIZ) for O=C(O)c1cn(C2CC2)c2cc(N3CCNCC3)c(F)cc2c1=O is 19

Reported diameter of the inhibition zone (DIZ) ( C[C@@H]1CN(c2c(F)c(N)c3c(=O)c(C(=O)O)cn(C4CC4)c3c2F)C[C@H](C)N1 ) = 25
